# SYSTEM: UniProtKB P08069
# MEASUREMENT_NOTES: Inhibition of human GST-rTEV-tagged IGF1R (957 to 1367 residues) expressed in baculovirus infected insect Sf9 cells assessed as decrease in biotin-aminohexyl-AEEEEYMMMMAKKKK-NH2 phosphorylation after 1 hr by fluorometer
PROPERTY_LABEL: IC50

compound_string=COc1cc(N2CCC(N3CCN(CCS(C)(=O)=O)CC3)CC2)c(C)cc1Nc1nccc(-c2c(-c3cccc(C(=O)Nc4c(F)cccc4F)c3)nc3ccccn23)n1 measured_value="< 100 nM"
compound_string=COc1cc(C2CCN(CCS(C)(=O)=O)CC2)ccc1Nc1nccc(-c2c(-c3ccc(OC)c(C(=O)Nc4c(F)cccc4F)c3)nc3ccccn23)n1 measured_value="< 100 nM"
compound_string=COc1cc(N2CCC(N3CCCCC3)CC2)ccc1Nc1nccc(-c2c(-c3cccc(C(=O)Nc4c(F)cccc4F)c3)nc3cc(C(F)(F)F)ccn23)n1 measured_value="< 100 nM"
compound_string=COc1cc(N2CCC(CCS(C)(=O)=O)CC2)ccc1Nc1nccc(-c2c(-c3ccc(OC)c(C(=O)Nc4c(F)cccc4F)c3)nc3cc(F)ccn23)n1 measured_value="< 100 nM"
compound_string=CCOc1cc(N2CCC(CCS(C)(=O)=O)CC2)c(C)cc1Nc1nccc(-c2c(-c3ccc(OC)c(C(=O)Nc4c(F)cccc4F)c3)nc3cc(F)ccn23)n1 measured_value="< 100 nM"
compound_string=CCOc1cc(N2CCN(CCS(C)(=O)=O)CC2)c(C)cc1Nc1nccc(-c2c(-c3ccc(OC(C)C)c(C(=O)Nc4c(F)cccc4F)c3)nc3ccccn23)n1 measured_value="100 to 1000 nM"
compound_string=CCOc1cc(N2CCC(N3CCN(S(C)(=O)=O)CC3)CC2)c(CC)cc1Nc1nccc(-c2c(-c3ccc(OCC)c(C(=O)Nc4c(F)cccc4F)c3)nc3ccccn23)n1 measured_value="100 to 1000 nM"

###

# SYSTEM: Insulin-like growth factor 1 receptor (Homo sapiens)
# MEASUREMENT_NOTES: Inhibition of IGF1-induced human IGF1R autophosphorylation expressed in mouse NIH-3T3 cells preincubated for 2 hrs followed by IGF-1 induction measured after 15 mins by DELFIA
# Type: cell-based, NIH3T3
PROPERTY_LABEL: IC50

compound_string=CCOc1cc(N2CCC(N3CCN(S(C)(=O)=O)CC3)CC2)c(CC)cc1Nc1nccc(-c2c(-c3ccc(OCC)c(C(=O)Nc4c(F)cccc4F)c3)nc3ccccn23)n1 measured_value="< 0.1 µM"
compound_string=CCOc1cc(N2CCN(CCS(C)(=O)=O)CC2)c(C)cc1Nc1nccc(-c2c(-c3ccc(OC(C)C)c(C(=O)Nc4c(F)cccc4F)c3)nc3ccccn23)n1 measured_value="< 0.1 µM"
compound_string=COc1cc(N2CCC(N3CCCCC3)CC2)ccc1Nc1nccc(-c2c(-c3cccc(C(=O)Nc4c(F)cccc4F)c3)nc3cc(C(F)(F)F)ccn23)n1 measured_value="0.1 to 0.5 µM"
compound_string=CCOc1cc(C2CCN(CCS(C)(=O)=O)CC2)ccc1Nc1nccc(-c2c(-c3ccc(OC(C)C)c(C(=O)Nc4c(F)cccc4F)c3)nc3ccccn23)n1 measured_value="< 0.1 µM"

###

# MEASUREMENT_NOTES: Cytotoxicity against human DK-MG cells after 3 days by InCell analyser assay
# Type: functional, cell-based
# CONDITION_NOTES: 72 h
pIC50: −log10 of the molar value.
PROPERTY_LABEL: pIC50

compound_string=COc1cc(N2CCC(N3CCCCC3)CC2)ccc1Nc1nccc(-c2c(-c3cccc(C(=O)Nc4c(F)cccc4F)c3)nc3ccccn23)n1 property_label=pIC50 measured_value="5.30 to 6.00"

###

# MEASUREMENT_NOTES: Cytotoxicity against human HT3 cells after 3 days by InCell analyser assay
# Type: functional, cell-based
# CONDITION_NOTES: HT-3, 72 h
PROPERTY_LABEL: IC50

compound_string=COc1cc(N2CCC(N3CCCCC3)CC2)ccc1Nc1nccc(-c2c(-c3cccc(C(=O)Nc4c(F)cccc4F)c3)nc3ccccn23)n1 property_label=IC50 measured_value="> 5 µM"

###

# MEASUREMENT_NOTES: Cytotoxicity against human BC3 cells after 3 days by InCell analyser assay
# Assay type: functional, cell-based
# CONDITION_NOTES: BC-3, 72 h
PROPERTY_LABEL: IC50

compound_string=COc1cc(N2CCC(N3CCCCC3)CC2)ccc1Nc1nccc(-c2c(-c3cccc(C(=O)Nc4c(F)cccc4F)c3)nc3ccccn23)n1 measured_value="1000 to 5000 nM"

###

# MEASUREMENT_NOTES: Cytotoxicity against human BC1 cells after 3 days by InCell analyser assay
# Format: functional, cell-based
# CONDITION_NOTES: BC1, 72 h
pIC50: −log10 of the molar value.
PROPERTY_LABEL: pIC50

compound_string=COc1cc(N2CCC(N3CCCCC3)CC2)ccc1Nc1nccc(-c2c(-c3cccc(C(=O)Nc4c(F)cccc4F)c3)nc3ccccn23)n1 property_label=pIC50 measured_value="5.30 to 6.00"

###

# MEASUREMENT_NOTES: Cytotoxicity against human RL cells after 3 days by InCell analyser assay
# Assay type: functional, cell-based
# CONDITION_NOTES: 72 h
PROPERTY_LABEL: IC50

compound_string=COc1cc(N2CCC(N3CCCCC3)CC2)ccc1Nc1nccc(-c2c(-c3cccc(C(=O)Nc4c(F)cccc4F)c3)nc3ccccn23)n1 property_label=IC50 measured_value="1000 to 5000 nM"
